Target: human DGAT2 (hDGAT2) (Homo sapiens, UniProt Q96PD7)
Construct: made in house; host or cells: Sf-9 insect cells (baculovirus), membrane fraction
Sequence (Q96PD7 whole entry): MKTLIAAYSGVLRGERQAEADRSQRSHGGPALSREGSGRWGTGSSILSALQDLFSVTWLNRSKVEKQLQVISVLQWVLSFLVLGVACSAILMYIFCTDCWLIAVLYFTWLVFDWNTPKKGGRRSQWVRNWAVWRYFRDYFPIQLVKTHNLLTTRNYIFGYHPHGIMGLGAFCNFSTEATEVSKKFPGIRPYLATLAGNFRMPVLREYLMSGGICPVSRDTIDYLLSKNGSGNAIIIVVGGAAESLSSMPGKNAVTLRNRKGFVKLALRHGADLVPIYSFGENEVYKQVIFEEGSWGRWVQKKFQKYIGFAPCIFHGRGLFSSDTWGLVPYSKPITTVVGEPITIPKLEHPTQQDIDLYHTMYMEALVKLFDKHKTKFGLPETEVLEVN
Test: DGAT2 Enzymatic Activity Assay
Assay type: biochemical
Settings: membrane prep of Sf-9 cells expressing hDGAT2; 25 μM diolein, 5 μM 13C oleoyl-CoA; 13C18-triolein by LC/MS/MS; read-out: DGAT2 IC50
Method: Insect Cell Expression and Membrane Preparation Sf-9 insect cells were maintained in Grace's insect cell culture medium with 10% heated-inactivated fetal bovine serum, 1% Pluronic F-68 and 0.14 μg/ml Kanamycine sulfate at 27° C. in a shaker incubator. […] The protein concentration was determined with the Pierce™ BCA Protein Assay Kit (Thermo Fisher Scientific). […]
pIC50: −log10 of the molar value.
compounds and their reported pIC50

Solved cases (2 shown):
CC(C)n1c(=O)n(-c2cccc(C#N)c2)c2ccc(C(=O)NC3(C)CCS(=O)(=O)CC3)cc21: < 5.00
CC(C)n1c(=O)n(-c2cccc(C(N)=O)c2)c2ccc(C(=O)NC3(C)CCS(=O)(=O)CC3)cc21: < 5.00

Task: GET /values?readout=pIC50&item= CC(=O)Nc1ccc(-n2c(=O)n(C(C)C)c3cc(C(=O)NC4(C)CS(=O)(=O)C4)ccc32)cc1O
Output: < 5.00
